- Test system: SK-MEL-28 melanoma
- protocol-details: NCI-60 one-dose screen, 48 h
- condition-description: 10 µM
About 83,000 compounds went through this panel and 20% of them were active in at least one assay; those are over-represented in the sample as a whole. Activity calls are given as the source filed them. The calls were made as follows: active = growth percent below 10; inactive = the rest.
Returns: one label drawn from active, inactive

Look over these answered cases.
CS(=O)(=O)Nc1ccc(-c2ccc3c(c2)ncn3-c2ccc(NC(=O)Nc3ccc(Cl)c(C(F)(F)F)c3)cc2)cc1 = active
O=C1Nc2cc(-c3ccc(NC(=O)c4cccs4)cc3)ccc2/C1=C/c1ccc[nH]1 = inactive
C/C(=C\CC/C=C(\C)CC/C=C(\C)CC[C@@H](O)C(C)(C)O)CC/C=C(\C)CC[C@@H](O)C(C)(C)O = inactive
C=C1CCC2C3(C)COC(c4cc(F)cc(F)c4)OC3CCC2(C)C1C/C=C1/C(=O)OCC1O (stereo unspecified) = active
CCOC(=O)C1=C(N)N(c2ccc(C)cc2)C2=C(C(=O)CC(C)(C)C2)C1c1ccccc1OC (stereo unspecified) = inactive

# input Recorded test call requested for COc1cc(C2CC(c3ccccc3)=Nc3c(N)nc(N)nc3N2)ccc1Oc1nc(Nc2ccc(F)cc2)nc(N(C)C)n1 (stereo unspecified)
# output inactive

# input Recorded test call requested for "Cc1ccc2nc3c(nc2c1)c1cc(I)ccc1n3CCN(C)C"
# output inactive

# input Recorded test call requested for CC1=C(C(=O)OC(C)C)C(c2ccc(O)cc2)NC(=S)N1 (stereo unspecified)
# output inactive
